Just for reference, ChEMBL document CHEMBL1138085 is where these values come from.

Molecular target: Glycogen synthase kinase-3 (Homo sapiens, UniProt P49840+P49841)
Test: Inhibition of GSK3alpha/beta in presence of 15 uM ATP
Format: protein assay
MEASURE NAME: IC50 (µM)

P: CC(C)Cn1cnc2ccc3nc(C4=NCCN4)sc3c2c1=O
Q: CCCn1cnc2ccc3nc(C4=NCCN4)sc3c2c1=O
// compare measured IC50, left P , right Q , return larger # respond with the chosen item's label P

a: CCn1cnc2ccc3nc(C4=NCCN4)sc3c2c1=O
b: CCn1cnc2ccc3nc(C(=N)NC(C)C)sc3c2c1=O
c: CC(C)n1cnc2ccc3nc(C4=NCCN4)sc3c2c1=O
d: CC(C)n1cnc2ccc3nc(C(=N)NCCN(C)C)sc3c2c1=O
Ascending by IC50, please. To answer, write out the labels according to the requested order. d, c, a, b
(d: 0.56 µM, c: 1.6 µM, a: 4.2 µM, b: 7.2 µM)

P: CCn1cnc2ccc3nc(C(=N)NCCN(C)C)sc3c2c1=O
Q: CC(C)NC(=N)c1nc2ccc3ncn(C(C)C)c(=O)c3c2s1
Dear colleague, could you let me know whether P or Q has the lower recorded IC50? Thanks. # respond with the chosen item's label P

====

Molecular target: Cyclin-dependent kinase 5/CDK5 activator 1 (Homo sapiens, UniProt Q00535)
Sequence (Q00535 whole entry): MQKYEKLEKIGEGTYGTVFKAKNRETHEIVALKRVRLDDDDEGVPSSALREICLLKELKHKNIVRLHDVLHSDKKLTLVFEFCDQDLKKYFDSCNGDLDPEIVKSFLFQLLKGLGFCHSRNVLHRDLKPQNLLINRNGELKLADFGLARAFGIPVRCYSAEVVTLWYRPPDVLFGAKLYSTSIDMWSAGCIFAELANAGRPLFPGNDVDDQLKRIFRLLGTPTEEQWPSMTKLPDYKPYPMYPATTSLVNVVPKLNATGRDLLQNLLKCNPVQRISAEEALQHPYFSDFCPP
Sequence (Q15078 whole entry, further chain): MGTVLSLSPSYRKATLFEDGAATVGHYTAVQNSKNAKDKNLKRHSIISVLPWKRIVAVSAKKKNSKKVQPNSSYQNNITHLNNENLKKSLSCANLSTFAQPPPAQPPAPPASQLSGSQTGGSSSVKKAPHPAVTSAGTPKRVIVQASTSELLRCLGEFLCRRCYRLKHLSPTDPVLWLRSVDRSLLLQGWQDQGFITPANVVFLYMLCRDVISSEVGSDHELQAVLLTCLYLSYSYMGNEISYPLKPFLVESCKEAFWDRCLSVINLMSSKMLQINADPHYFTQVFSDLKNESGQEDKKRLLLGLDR
Test: Inhibition of CDK5/p25 in presence of 15 uM ATP
Type: protein-complex assay
Measured IC50, listed per entry for reference.

Past entries and their recorded results:
[[record]]
test_smiles = "O=c1c2c(ccc3nc(C4=NCCN4)sc32)ncn1Cc1ccccc1"
measurement_target = "Cyclin-dependent kinase 5/CDK5 activator 1 (Homo sapiens, UniProt Q00535)"
measure_name = "IC50"
obs_value = "> 10 µM"

[[record]]
test_smiles = "CC(C)n1cnc2ccc3nc(C4=NCCN4)sc3c2c1=O"
measurement_target = "Cyclin-dependent kinase 5/CDK5 activator 1 (Homo sapiens, UniProt Q00535)"
measure_name = "IC50"
obs_value = "> 100 µM"

[[record]]
test_smiles = "CC(C)Cn1cnc2ccc3nc(C4=NCCN4)sc3c2c1=O"
measurement_target = "Cyclin-dependent kinase 5/CDK5 activator 1 (Homo sapiens, UniProt Q00535)"
measure_name = "IC50"
obs_value = "> 100 µM"

[[record]]
test_smiles = "CC(C)n1cnc2ccc3nc(C(=N)NCCN(C)C)sc3c2c1=O"
measurement_target = "Cyclin-dependent kinase 5/CDK5 activator 1 (Homo sapiens, UniProt Q00535)"
measure_name = "IC50"
obs_value = "4 µM"

[[record]]
test_smiles = "CCn1cnc2ccc3nc(C4=NCCN4)sc3c2c1=O"
measurement_target = "Cyclin-dependent kinase 5/CDK5 activator 1 (Homo sapiens, UniProt Q00535)"
measure_name = "IC50"
obs_value = "> 100 µM"


Tested on Cyclin-dependent kinase 5/CDK5 activator 1 (Homo sapiens, UniProt Q00535), the item `CC(C)CCn1cnc2ccc3nc(C4=NCCN4)sc3c2c1=O` showed IC50 equal to > 10 µM

Tested on Cyclin-dependent kinase 5/CDK5 activator 1 (Homo sapiens, UniProt Q00535), the item `CCCn1cnc2ccc3nc(C4=NCCN4)sc3c2c1=O` showed IC50 equal to > 100 µM

====

Measured IC50, listed per entry for reference.
Biological target: Glycogen synthase kinase-3 (Homo sapiens, UniProt P49840+P49841)
Test: Inhibition of GSK3alpha/beta in presence of 15 uM ATP
Type: protein assay

Past entries and their recorded results:
[[record]]
test_smiles = "COc1ccc(Cn2cnc3ccc4nc(C5=NCCN5)sc4c3c2=O)cc1"
obs_value = "> 10 µM"

[[record]]
test_smiles = "CC(C)CCn1cnc2ccc3nc(C4=NCCN4)sc3c2c1=O"
obs_value = "> 10 µM"


--- query ---
Tested on Glycogen synthase kinase-3 (Homo sapiens, UniProt P49840+P49841), the item `O=c1c2c(ccc3nc(C4=NCCN4)sc32)ncn1Cc1ccccc1` showed IC50 equal to > 10 µM
